# ASSAYED_SYSTEM: adenovirus type 11 vector particles (human adenovirus type 11)
# PROTOCOL: SPR; electrostatic (fast) component of one-to-two model
READOUT: pKd
Bear in mind: pKd is minus log10 of a mol/L concentration; give just that figure.

[ask] Sample human platelet factor 4 (natural protein) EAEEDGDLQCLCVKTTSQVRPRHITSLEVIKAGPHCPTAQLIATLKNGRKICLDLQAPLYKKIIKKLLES — what was its pKd?
[reply] 6.13
